List of AC50 tested on Delta-type opioid receptor (Homo sapiens). Note: assay procedure not described here.
Sequence (P41143 whole entry): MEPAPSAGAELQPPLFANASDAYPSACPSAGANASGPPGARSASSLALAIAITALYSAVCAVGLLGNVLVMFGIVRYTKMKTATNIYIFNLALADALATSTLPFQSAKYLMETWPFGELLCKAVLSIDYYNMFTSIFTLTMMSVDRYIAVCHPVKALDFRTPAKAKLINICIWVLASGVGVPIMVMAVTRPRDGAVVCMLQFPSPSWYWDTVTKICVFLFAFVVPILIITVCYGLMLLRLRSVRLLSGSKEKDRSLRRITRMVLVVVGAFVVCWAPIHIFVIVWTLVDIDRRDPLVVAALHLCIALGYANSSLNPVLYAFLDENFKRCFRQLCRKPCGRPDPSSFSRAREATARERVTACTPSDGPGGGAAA

Recorded AC50, per entry:
molecule	observable	observed-value
Cc1cc2nc3c(=O)[nH]c(=O)nc-3n(C[C@H](O)[C@H](O)[C@H](O)COP(=O)(O)O)c2cc1C [RIBOFLAVIN 5'-PHOSPHATE]	AC50	> 30 µM
O=C1CN=C(c2ccccc2)c2cc(Cl)ccc2N1	AC50	> 10 µM
Cc1ccc(NC(=O)C2(c3ccc4c(c3)OC(F)(F)O4)CC2)nc1-c1cccc(C(=O)O)c1	AC50	> 30 µM

Lab note: molecule `CCOC(=O)Nc1ccc2c(c1)N(C(=O)CCN1CCOCC1)c1ccccc1S2` tested on Delta-type opioid receptor (Homo sapiens); recorded AC50 was > 30 µM

Lab note: molecule COCCCOc1ccnc(C[S+]([O-])c2nc3ccccc3[nH]2)c1C (configuration not stated) tested on Delta-type opioid receptor (Homo sapiens); recorded AC50 was > 30 µM

Lab note: molecule `C[n+]1ccccc1/C=N/O` tested on Delta-type opioid receptor (Homo sapiens); recorded AC50 was > 30 µM

Lab note: molecule CCCNC(C)C(=O)Nc1ccccc1C (configuration not stated) tested on Delta-type opioid receptor (Homo sapiens); recorded AC50 was > 30 µM

Lab note: molecule `CCc1oc2ccccc2c1C(=O)c1cc(Br)c(O)c(Br)c1` tested on Delta-type opioid receptor (Homo sapiens); recorded AC50 was > 30 µM

Lab note: molecule `CN1CCN(CCCN2c3ccccc3Sc3ccc(S(=O)(=O)N(C)C)cc32)CC1` tested on Delta-type opioid receptor (Homo sapiens); recorded AC50 was 29 µM

====

Biological target: 5-hydroxytryptamine receptor 3A (Homo sapiens); note: assay procedure not described here
Sequence (P46098 whole entry): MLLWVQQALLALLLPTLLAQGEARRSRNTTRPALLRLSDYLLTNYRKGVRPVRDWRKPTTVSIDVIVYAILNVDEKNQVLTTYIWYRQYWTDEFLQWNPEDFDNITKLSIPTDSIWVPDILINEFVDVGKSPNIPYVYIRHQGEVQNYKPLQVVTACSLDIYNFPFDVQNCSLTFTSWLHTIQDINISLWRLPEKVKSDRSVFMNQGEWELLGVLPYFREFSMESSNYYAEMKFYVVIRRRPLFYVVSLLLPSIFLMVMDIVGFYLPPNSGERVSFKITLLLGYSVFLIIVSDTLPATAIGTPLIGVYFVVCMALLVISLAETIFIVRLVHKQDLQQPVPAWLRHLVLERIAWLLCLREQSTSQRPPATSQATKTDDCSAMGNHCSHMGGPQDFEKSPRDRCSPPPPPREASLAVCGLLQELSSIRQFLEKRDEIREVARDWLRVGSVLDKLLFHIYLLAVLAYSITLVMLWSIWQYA
Assay type: functional
observable: AC50

Recorded AC50, per entry:
compound	AC50
NS(=O)(=O)c1cc2c(cc1C(F)(F)F)NC(Cc1ccccc1)NS2(=O)=O (configuration not stated) [BENDROFLUMETHIAZIDE]	> 30 µM
CCC(=O)OCC(=O)[C@@]1(OC(=O)CC)[C@@H](C)C[C@H]2[C@@H]3CCC4=CC(=O)C=C[C@]4(C)[C@@]3(F)[C@@H](O)C[C@@]21C [BETAMETHASONE DIPROPIONATE]	> 30 µM
CC(C)C[C@H](CN)CC(=O)O [PREGABALIN]	> 30 µM
COCCCOc1ccnc(C[S+]([O-])c2nc3ccccc3[nH]2)c1C (configuration not stated) [RABEPRAZOLE]	6 µM

For Clc1ccc2c(c1)C(c1ccccc1)=NCc1nncn1-2 [ESTAZOLAM] the compound record lists AC50 as > 30 µM

For O=C1Nc2ccc(Cl)cc2C(c2ccccc2)=NC1O (configuration not stated) [OXAZEPAM] the compound record lists AC50 as > 10 µM

====

List of AC50 tested on Gamma-aminobutyric acid receptor subunit alpha-1 (Rattus norvegicus, UniProt P62813). Note: assay procedure not described here.
Sequence (P62813 whole entry): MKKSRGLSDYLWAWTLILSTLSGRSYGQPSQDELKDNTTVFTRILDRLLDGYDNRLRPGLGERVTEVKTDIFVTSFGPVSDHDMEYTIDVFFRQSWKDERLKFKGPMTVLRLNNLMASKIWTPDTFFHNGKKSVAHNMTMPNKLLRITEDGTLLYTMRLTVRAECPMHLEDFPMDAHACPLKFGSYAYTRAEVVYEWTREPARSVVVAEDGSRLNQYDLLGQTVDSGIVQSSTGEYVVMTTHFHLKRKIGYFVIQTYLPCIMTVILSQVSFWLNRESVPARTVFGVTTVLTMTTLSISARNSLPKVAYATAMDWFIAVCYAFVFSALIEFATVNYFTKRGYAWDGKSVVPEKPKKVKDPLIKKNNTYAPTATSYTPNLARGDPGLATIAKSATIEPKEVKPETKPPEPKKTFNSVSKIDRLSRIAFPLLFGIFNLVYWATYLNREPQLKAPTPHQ

> print(dat)
                                   compound  observable  observed.value
1  CO[C@@]1(NC(=O)Cc2cccs2)C(=O)N2C(C(=O)O)=C(COC(N)=O)CS[C@@H]21        AC50         > 10 µM
2  CC(=O)c1ccc2c(c1)N(CCCN1CCC(CCO)CC1)c1ccccc1S2        AC50         > 30 µM
3  CCn1cc(C(=O)O)c(=O)c2cc(F)c(N3CCNCC3)nc21        AC50         > 10 µM
4                    CNC[C@H](O)c1cccc(O)c1        AC50         > 30 µM
5  CC#CCn1c(N2CCC[C@@H](N)C2)nc2c1c(=O)n(Cc1nc(C)c3ccccc3n1)c(=O)n2C        AC50         > 10 µM

Lab note: compound COc1cccc(N(C)C(=S)Oc2ccc3c(c2)CCCC3)n1 [LIRANAFTATE] tested on Gamma-aminobutyric acid receptor subunit alpha-1 (Rattus norvegicus, UniProt P62813); recorded AC50 was > 30 µM

Lab note: compound CC[N+]1(C)CCCC(OC(=O)C(O)(c2ccccc2)c2ccccc2)C1 (centres undefined) [PIPENZOLATE] tested on Gamma-aminobutyric acid receptor subunit alpha-1 (Rattus norvegicus, UniProt P62813); recorded AC50 was > 30 µM

Lab note: compound CCCC(C)(COC(N)=O)COC(=O)NC(C)C (centres undefined) tested on Gamma-aminobutyric acid receptor subunit alpha-1 (Rattus norvegicus, UniProt P62813); recorded AC50 was > 10 µM

Lab note: compound `C[C@]12CC[C@H](O)CC1=CC[C@@H]1[C@@H]2CC[C@]2(C)C(c3cccnc3)=CC[C@@H]12` tested on Gamma-aminobutyric acid receptor subunit alpha-1 (Rattus norvegicus, UniProt P62813); recorded AC50 was > 10 µM

====

List of AC50 tested on Estrogen receptor (Homo sapiens). Note: assay procedure not described here.
Sequence (P03372 whole entry): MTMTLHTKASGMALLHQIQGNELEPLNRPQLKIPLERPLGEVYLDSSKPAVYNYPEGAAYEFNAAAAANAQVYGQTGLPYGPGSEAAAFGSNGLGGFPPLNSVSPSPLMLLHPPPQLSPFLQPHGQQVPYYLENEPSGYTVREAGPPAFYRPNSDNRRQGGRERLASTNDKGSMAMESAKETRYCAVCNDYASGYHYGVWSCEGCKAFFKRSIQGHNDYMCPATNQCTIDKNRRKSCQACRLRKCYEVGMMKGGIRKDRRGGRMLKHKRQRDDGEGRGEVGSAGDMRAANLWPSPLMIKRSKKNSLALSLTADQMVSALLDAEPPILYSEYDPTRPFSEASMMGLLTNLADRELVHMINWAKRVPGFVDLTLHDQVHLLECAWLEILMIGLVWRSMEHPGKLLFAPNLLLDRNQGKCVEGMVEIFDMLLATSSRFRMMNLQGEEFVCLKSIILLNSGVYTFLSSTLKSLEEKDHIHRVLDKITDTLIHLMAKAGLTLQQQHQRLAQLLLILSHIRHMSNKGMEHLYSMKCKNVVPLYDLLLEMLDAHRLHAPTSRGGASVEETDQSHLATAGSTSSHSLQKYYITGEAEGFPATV

Recorded AC50, per entry:
compound	observed-value
OC(CCCN1CCCCC1)(c1ccccc1)c1ccccc1	> 30 µM
O=C(O)c1cc(=O)c2ccccc2o1	> 30 µM
CCCCCCCCNC(C)C(O)c1ccc(SC(C)C)cc1 (stereo unspecified)	16.7 µM
CO[C@H]1/C=C/O[C@@]2(C)Oc3c(C)c(O)c4c(O)c(cc(O)c4c3C2=O)NC(=O)/C(C)=C\C=C\[C@H](C)[C@H](O)[C@@H](C)[C@@H](O)[C@@H](C)[C@H](OC(C)=O)[C@@H]1C	> 30 µM
CCCC(=O)O[C@H]1[C@H](C)O[C@@H](O[C@H]2[C@H](N(C)C)[C@@H](O)[C@H](O[C@H]3[C@@H](CC=O)C[C@@H](C)[C@@H](O)/C=C/C=C/C[C@@H](C)OC(=O)C[C@@H](O)[C@@H]3OC)O[C@@H]2C)C[C@@]1(C)OC(=O)CC	> 30 µM

Would you kindly look at the next entry?
Lab note: compound C[C@]12CC[C@@H]3c4ccc(O)cc4CC[C@H]3[C@@H]1CC[C@@H]2OC(=O)CCC1CCCC1 [ESTRADIOL CYPIONATE] tested on Estrogen receptor (Homo sapiens); recorded AC50 was 0.379 µM

====

List of AC50 tested on 5-hydroxytryptamine receptor 2C (Homo sapiens). Note: assay procedure not described here.
Sequence (P28335 whole entry): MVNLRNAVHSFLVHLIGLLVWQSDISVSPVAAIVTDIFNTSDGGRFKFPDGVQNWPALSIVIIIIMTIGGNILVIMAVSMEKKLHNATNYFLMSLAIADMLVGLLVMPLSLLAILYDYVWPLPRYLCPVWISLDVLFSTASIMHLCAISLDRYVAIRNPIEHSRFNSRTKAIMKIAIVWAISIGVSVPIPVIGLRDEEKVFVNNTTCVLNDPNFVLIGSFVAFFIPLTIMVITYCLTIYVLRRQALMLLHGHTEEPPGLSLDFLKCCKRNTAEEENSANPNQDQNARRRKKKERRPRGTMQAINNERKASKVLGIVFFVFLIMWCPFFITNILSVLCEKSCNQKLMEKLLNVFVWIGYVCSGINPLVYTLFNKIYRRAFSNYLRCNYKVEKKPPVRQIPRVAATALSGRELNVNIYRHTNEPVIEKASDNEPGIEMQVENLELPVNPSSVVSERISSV

Recorded AC50, per entry:
> print(dat)
                                   molecule  observed.value
1  COc1cccc(N(C)C(=S)Oc2ccc3c(c2)CCCC3)n1 [LIRANAFTATE]         > 30 µM
2              CCCCNc1ccc(C(=O)OCCN(C)C)cc1         > 10 µM
3  CC[C@@H](CO)NC(=O)[C@@H]1C=C2c3cccc4[nH]cc(c34)C[C@H]2N(C)C1         0.12 µM
4                CS(=O)(=O)OCCCCOS(C)(=O)=O         > 30 µM
5  CC(C)c1cc2c(cc1S(=O)(=O)O)[C@@]1(C)CCC[C@@](C)(C(=O)O)[C@@H]1CC2         > 30 µM

Lab note: molecule `CN(C)c1cc(NC(=O)CNC(C)(C)C)c(O)c2c1C[C@H]1C[C@H]3[C@H](N(C)C)C(O)=C(C(N)=O)C(=O)[C@@]3(O)C(O)=C1C2=O` tested on 5-hydroxytryptamine receptor 2C (Homo sapiens); recorded AC50 was > 30 µM

Lab note: molecule `[H]/N=C(\N/C(=N/[H])NCCCCCCNC(=N)NC(=N)Nc1ccc(Cl)cc1)Nc1ccc(Cl)cc1` tested on 5-hydroxytryptamine receptor 2C (Homo sapiens); recorded AC50 was 5.4 µM

Lab note: molecule `O=C(O)c1ccccc1Nc1cccc(C(F)(F)F)c1` tested on 5-hydroxytryptamine receptor 2C (Homo sapiens); recorded AC50 was 4.6 µM

====

Target: UniProtKB P22303
Sequence (P22303 whole entry): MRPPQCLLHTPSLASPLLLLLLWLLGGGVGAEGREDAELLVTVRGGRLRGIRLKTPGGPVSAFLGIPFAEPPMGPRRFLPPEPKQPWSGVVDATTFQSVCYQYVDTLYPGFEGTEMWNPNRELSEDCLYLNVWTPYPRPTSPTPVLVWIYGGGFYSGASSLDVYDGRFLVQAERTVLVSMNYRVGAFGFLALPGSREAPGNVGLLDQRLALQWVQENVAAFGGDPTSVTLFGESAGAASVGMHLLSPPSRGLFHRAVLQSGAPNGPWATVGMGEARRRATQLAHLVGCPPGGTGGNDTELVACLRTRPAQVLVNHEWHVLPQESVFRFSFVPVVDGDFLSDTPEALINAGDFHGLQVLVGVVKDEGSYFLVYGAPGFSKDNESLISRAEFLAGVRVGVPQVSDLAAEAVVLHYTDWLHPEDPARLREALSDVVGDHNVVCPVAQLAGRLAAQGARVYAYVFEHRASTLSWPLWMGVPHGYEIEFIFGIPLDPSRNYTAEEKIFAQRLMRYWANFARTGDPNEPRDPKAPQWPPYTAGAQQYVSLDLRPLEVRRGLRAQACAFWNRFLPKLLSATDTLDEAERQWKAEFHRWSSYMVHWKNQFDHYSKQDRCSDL
Format: functional
observable: AC50

Recorded AC50, per entry:
> print(dat)
                                   compound  measurement.target  observable  observed.value
1  C[C@@H]1C[C@H]2[C@@H]3CCC4=CC(=O)C=C[C@]4(C)C3=CC[C@]2(C)[C@H]1C(=O)CN1CCN(c2cc(N3CCCC3)nc(N3CCCC3)n2)CC1    UniProtKB P22303        AC50         > 30 µM
2                           C[C@H](N)C(=O)O    UniProtKB P22303        AC50         > 30 µM
3  Cn1c(=O)c2c(ncn2CC(O)CO)n(C)c1=O (stereo not given)    UniProtKB P22303        AC50         > 30 µM
4  CC1(C)O[C@@H]2C[C@H]3[C@@H]4CCC5=CC(=O)CC[C@]5(C)[C@@]4(F)[C@@H](O)C[C@]3(C)[C@]2(C(=O)CCl)O1 [HALCINONIDE]    UniProtKB P22303        AC50         > 30 µM

Lab note: compound CCCCCCCCNC(C)C(O)c1ccc(SC(C)C)cc1 (stereo not given) tested on UniProtKB P22303; recorded AC50 was > 30 µM
